# assayTarget: Nucleolin (Homo sapiens, UniProt P19338)
# Construct: Recombinant human Nucleolin
# Sequence (P19338 2-710): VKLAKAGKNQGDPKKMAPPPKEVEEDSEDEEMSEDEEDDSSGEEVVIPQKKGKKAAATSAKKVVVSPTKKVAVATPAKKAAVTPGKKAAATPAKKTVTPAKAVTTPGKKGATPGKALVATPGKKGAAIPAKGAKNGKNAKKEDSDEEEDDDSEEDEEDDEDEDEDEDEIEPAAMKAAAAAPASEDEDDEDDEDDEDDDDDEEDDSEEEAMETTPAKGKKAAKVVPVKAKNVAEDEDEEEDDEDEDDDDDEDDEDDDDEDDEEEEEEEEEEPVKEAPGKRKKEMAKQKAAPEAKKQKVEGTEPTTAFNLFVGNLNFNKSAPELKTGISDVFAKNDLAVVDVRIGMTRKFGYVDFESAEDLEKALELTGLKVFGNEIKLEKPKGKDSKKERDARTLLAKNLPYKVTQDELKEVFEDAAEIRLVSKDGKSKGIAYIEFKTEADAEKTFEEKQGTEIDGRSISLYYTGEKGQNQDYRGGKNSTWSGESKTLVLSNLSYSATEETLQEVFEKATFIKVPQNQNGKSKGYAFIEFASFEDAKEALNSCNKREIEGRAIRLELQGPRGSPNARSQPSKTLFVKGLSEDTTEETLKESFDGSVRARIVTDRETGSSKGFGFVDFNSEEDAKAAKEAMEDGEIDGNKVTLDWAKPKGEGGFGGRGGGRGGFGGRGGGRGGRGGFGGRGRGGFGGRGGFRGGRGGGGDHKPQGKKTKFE
# measurementDescription: SPR (Biacore […], immobilized Nucleolin on CM5 chip); supported by CETSA, DARTS and affinity pull-down
reportedProperty: Kd (nM)
Numbers only, in nM.

Ask: State the recorded Kd for this entry: C=C1C(=O)[C@]23[C@H](O)[C@H]1CC[C@H]2[C@@]12CO[C@]3(O)[C@@H](O)[C@@H]1C(C)(C)CC[C@@H]2O
Result: 3.8
